- System: Rh30 rhabdomyosarcoma cells
- test.protocol: Growth inhibition by CPT-11 of Rh30 cells stably transfected with pIRES or rabbit CE cDNA
- Assay type: cell-based
- assay.setup: Homo sapiens, Rh30, 2 h, read-out: IC50 of CPT-11, Rh30pIRESrabbit cells (rabbit CE cDNA); 2 h exposure
measurement.label: pIC50
The quantity pIC50 is defined as the negative base-10 logarithm of the molar concentration.

Consider the compound CCc1c2c(nc3ccc(OC(=O)N4CCC(N5CCCCC5)CC4)cc13)-c1cc3c(c(=O)n1C2)COC(=O)[C@]3(O)CC and give its measured pIC50.
6.24

Source listed as patent US7018631B1.
